Each item that follows carries a reported Ki.
- Experimental System: human σ2/TMEM97 receptor (Homo sapiens)
- Construct: expressed in transfected cells; host or cells: HEK-293
- Experiment Notes: Binding assay to human σ2/TMEM97 receptor ([3H]-DTG, transfected HEK-293 membranes)
- Reported Conditions: class scale, read-out: Binding σ-2 Ki

Cc1cc(-c2nn(C)c(Cl)c2C(=O)N2CCC[C@H](CNCCC(C)C)C2)no1
500 to 1000 nM
Cc1cc(-c2nn(C)c(Cl)c2CN2CC[C@]3(CCN(CCC(C)(C)C)C3)C2)no1
< 100 nM
Cc1cc(-c2nn(C)c(Cl)c2CN2CCCOC(CNCCC(C)C)C2)no1 (stereo not shown)
100 to 500 nM

Next item in the queue.
Give Ki only, for Cc1cc(-c2nn(C)c(Cl)c2C(=O)N2CCCCC(NCc3ccccc3)C2)no1 (stereo not shown) , using human σ2/TMEM97 receptor (Homo sapiens) data. 100 to 500 nM

---

- Experimental System: human σ1 receptor (Homo sapiens)
- Sequence (Q99720 whole entry): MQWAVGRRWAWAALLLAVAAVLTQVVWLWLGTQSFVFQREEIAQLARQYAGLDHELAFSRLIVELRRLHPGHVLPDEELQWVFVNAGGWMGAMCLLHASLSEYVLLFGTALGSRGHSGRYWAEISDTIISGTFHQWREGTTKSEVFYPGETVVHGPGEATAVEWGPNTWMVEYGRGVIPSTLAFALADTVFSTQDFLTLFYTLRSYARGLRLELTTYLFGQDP
pKi: −log10 of the molar value.
Each item that follows carries a reported pKi.

Cc1cc(-c2nn(C)c(Cl)c2CN2CCCC(CNCCC(C)C)C2)no1 (centres unmarked)
6.30 to 7.00
Cc1cc(-c2nn(C)c(Cl)c2C(=O)N2CCCC3(CCN(CC(C)(C)C)CC3)C2)no1
< 6.00
Cn1nc(-c2cccc(C(F)(F)F)n2)c(C(=O)NC2CCN(CCC(C)(C)C)CC2)c1Cl
> 7.00
Cc1cc(-c2nn(C)c(Cl)c2C(=O)N2CCC3(CCCN(CCC(C)(C)C)C3)CC2)no1
6.00 to 6.30
CCn1nc(-c2ccon2)c(CC(=O)NC2CCN(CCC(C)(C)C)CC2)c1Cl
> 7.00
Cc1cc(-c2nn(-c3ccccc3)c(Cl)c2CN2CCCCC(NCCC(C)C)C2)no1 (centres unmarked)
6.30 to 7.00
Cc1cc(-c2nn(C)c(Cl)c2CN2CCC(CNCCC(C)C)C2)no1 (centres unmarked)
6.00 to 6.30
Cc1cc(-c2nn(C)c(Cl)c2CN2CCC(CNCCC(C)(C)C)C2)no1 (centres unmarked)
6.30 to 7.00

Give pKi only, for Cc1cc(-c2nn(C)c(Cl)c2CN2CC[C@@H](CNCCc3ccccc3)C2)no1 , using human σ1 receptor (Homo sapiens) data. 6.00 to 6.30

Give pKi only, for COc1ccc(-c2nn(C)c(Cl)c2CN2CCCCC(NCCC(C)(C)C)C2)nc1 (centres unmarked) , using human σ1 receptor (Homo sapiens) data. 6.00 to 6.30

Give pKi only, for CCn1nc(-c2cc(C)on2)c(C(=O)NC2CCC3(CC2)CCN(CCC(C)(C)C)CC3)c1Cl , using human σ1 receptor (Homo sapiens) data. > 7.00

Give pKi only, for Cc1cc(-c2nn(C)c(Cl)c2C(=O)N2CCCC3(CCN(Cc4ccccc4)CC3)C2)no1 , using human σ1 receptor (Homo sapiens) data. 6.30 to 7.00

Give pKi only, for CCn1nc(-c2cc(C)on2)c(C(=O)N2CCCC3(CN(CCC(C)(C)C)C3)C2)c1Cl , using human σ1 receptor (Homo sapiens) data. 6.00 to 6.30

Give pKi only, for Cc1cc(-c2nn(C)c(Cl)c2CN2CCCC(CNCc3ccccc3)C2)no1 (centres unmarked) , using human σ1 receptor (Homo sapiens) data. < 6.00

Give pKi only, for CCn1cc(-c2nn(C)c(Cl)c2C(=O)NC2CC3(CCN(CCC(C)(C)C)CC3)C2)cn1 , using human σ1 receptor (Homo sapiens) data. 6.00 to 6.30

Give pKi only, for CC(C)CCN[C@H]1CCCCN(Cc2c(-c3noc4c3COCC4)nn(C)c2Cl)C1 , using human σ1 receptor (Homo sapiens) data. 6.30 to 7.00

Give pKi only, for Cc1cc(-c2nn(C)c(Cl)c2CN2CC3(CCN(CCC(C)(C)C)C3)C2)no1 , using human σ1 receptor (Homo sapiens) data. > 7.00

---

- Experimental System: human σ2/TMEM97 receptor (Homo sapiens)
- Experiment Notes: Binding assay to human σ2/TMEM97 receptor ([3H]-DTG, transfected HEK-293 membranes)
- Reported Conditions: class scale, read-out: Binding σ-2 Ki
pKi: −log10 of the molar value.
Value Type: pKi

Dear colleague, please send me the reported pKi for CCn1nc(-c2cc(C)on2)c(C(=O)N2CCC3(CCN(CCC(C)(C)C)CC3)CC2)c1Cl when you can. > 7.00

---

pKi: −log10 of the molar value.
These records show pKi for UniProtKB Q99720.

# annotated cases, reported pKi shown
Cc1cc(-c2nn(C)c(Cl)c2CN2CCCC(CNCCc3ccccc3)C2)no1 (stereo not shown) [Example 57]
6.00 to 6.30
Cn1nc(-c2cccc(C(F)(F)F)n2)c(C(=O)NC2CCC3(CC2)CCN(CCC(C)(C)C)CC3)c1Cl [Example 147]
> 7.00
Cc1cc(-c2nn(C)c(Cl)c2C(=O)N2CCC[C@@H](NCCC(C)C)C2)no1 [Example 108]
6.30 to 7.00

Dear colleague, please send me the reported pKi for Cc1cc(-c2nn(C)c(Cl)c2CN2CCC3(CC2)CCN(CC(C)(C)C)CC3)no1 [Example 68] when you can. 6.30 to 7.00

Dear colleague, please send me the reported pKi for Cc1cc(-c2nn(C)c(Cl)c2C(=O)N2CCC[C@@H](CNCCC(C)C)C2)no1 [Example 126] when you can. < 6.00

Dear colleague, please send me the reported pKi for Cc1cc(-c2nn(C)c(Cl)c2C(=O)N2CCC3(CCN(Cc4ccccc4)CC3)CC2)no1 [Example 175] when you can. 6.00 to 6.30

Dear colleague, please send me the reported pKi for CCCn1nc(-c2cc(C)on2)c(C(=O)N2CC3(CCN(CCC(C)(C)C)CC3)C2)c1Cl [Example 185] when you can. 6.30 to 7.00

Dear colleague, please send me the reported pKi for Cc1cc(-c2nn(C)c(Cl)c2C(=O)N2CCC3(CCN(CCC(C)(C)C)C3)CC2)no1 [Example 87] when you can. 6.00 to 6.30

Dear colleague, please send me the reported pKi for Cc1cc(-c2nn(-c3ccncc3)c(Cl)c2C(=O)N2CCC3(CCN(CCC(C)(C)C)CC3)CC2)no1 [Example 170] when you can. 6.30 to 7.00

---

- Experimental System: human σ2/TMEM97 receptor (Homo sapiens, UniProt Q5BJF2)
- Sequence (Q5BJF2 whole entry): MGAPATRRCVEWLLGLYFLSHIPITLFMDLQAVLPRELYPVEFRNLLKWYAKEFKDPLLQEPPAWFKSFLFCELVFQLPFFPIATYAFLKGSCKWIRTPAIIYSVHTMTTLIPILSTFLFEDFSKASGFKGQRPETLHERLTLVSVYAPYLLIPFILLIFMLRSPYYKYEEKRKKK
- Experiment Notes: Binding assay to human σ2/TMEM97 receptor ([3H]-DTG, transfected HEK-293 membranes)
- Reported Conditions: class scale, read-out: Binding σ-2 Ki
pKi: −log10 of the molar value.
Value Type: pKi

CCn1nc(-c2cc(C)on2)c(C(=O)Nc2ccc3c(c2)CCN(CCC(C)(C)C)C3)c1Cl [Example 204]
> 7.00
CCn1nc(-c2ccnc(C)c2)c(C(=O)N2CCC3(CCN(CCC(C)(C)C)CC3)CC2)c1Cl [Example 207]
> 7.00
Cc1cc(-c2nn(C)c(Cl)c2CN2CCCCC(NCCC(C)(C)C)C2)no1 (centres unmarked) [Example 8]
6.00 to 6.30

Give pKi only, for Cc1cc(-c2nn(C(C)C)c(Cl)c2C(=O)N2CCC3(CCN(CCC(C)(C)C)CC3)CC2)no1 [Example 183] , using human σ2/TMEM97 receptor (Homo sapiens, UniProt Q5BJF2) data. > 7.00

Give pKi only, for CCn1nc(-c2cccc(C(F)(F)F)n2)c(CN2CC3(CCN(CCC(C)(C)C)CC3)CC2=O)c1Cl [Example 229] , using human σ2/TMEM97 receptor (Homo sapiens, UniProt Q5BJF2) data. > 7.00

Give pKi only, for Cc1cc(-c2nn(C)c(Cl)c2CN2CCCC(CNCCc3ccccc3)C2)no1 (centres unmarked) [Example 57] , using human σ2/TMEM97 receptor (Homo sapiens, UniProt Q5BJF2) data. 6.30 to 7.00

Give pKi only, for CCn1nc(-c2cc(C)on2)c(CN2CC3(CCN(CCC(C)(C)C)CC3)CC2=O)c1Cl [Example 225] , using human σ2/TMEM97 receptor (Homo sapiens, UniProt Q5BJF2) data. > 7.00

Give pKi only, for CCCn1nc(-c2cc(C)on2)c(CN2CC3(CCN(CCC(C)(C)C)CC3)CC2=O)c1Cl [Example 226] , using human σ2/TMEM97 receptor (Homo sapiens, UniProt Q5BJF2) data. > 7.00

Give pKi only, for Cc1cc(-c2nn(C)c(Cl)c2CC(=O)NC2CCC3(CC2)CCN(CCC(C)(C)C)CC3)no1 [Example 215] , using human σ2/TMEM97 receptor (Homo sapiens, UniProt Q5BJF2) data. > 7.00

Give pKi only, for Cc1cc(-c2nn(C)c(Cl)c2C(=O)N2CCC3(CCCN(CCC(C)(C)C)C3)CC2)no1 [Example 91] , using human σ2/TMEM97 receptor (Homo sapiens, UniProt Q5BJF2) data. > 7.00

Give pKi only, for Cc1conc1-c1nn(C)c(Cl)c1C(=O)N1CCCC2(CCN(CCC(C)(C)C)CC2)C1 [Example 103] , using human σ2/TMEM97 receptor (Homo sapiens, UniProt Q5BJF2) data. > 7.00

Give pKi only, for Cc1cc(-c2nn(C)c(Cl)c2CN2CCC3(CC2)CCN(CCC(C)(C)C)C3)no1 [Example 50] , using human σ2/TMEM97 receptor (Homo sapiens, UniProt Q5BJF2) data. > 7.00

Give pKi only, for Cc1cc(-c2nn(C)c(Cl)c2CN2CCCCC(N(C)CC3CCOCC3)C2)no1 (centres unmarked) [Example 81] , using human σ2/TMEM97 receptor (Homo sapiens, UniProt Q5BJF2) data. 6.30 to 7.00

Give pKi only, for Cn1cc(-c2nn(C)c(Cl)c2C(=O)NC2CC3(CCN(CCC(C)(C)C)CC3)C2)cn1 [Example 140] , using human σ2/TMEM97 receptor (Homo sapiens, UniProt Q5BJF2) data. > 7.00

Give pKi only, for CCn1nc(-c2cc(C)on2)c(C(=O)NCC2CCCN(CCC(C)(C)C)C2)c1Cl (centres unmarked) [Example 205] , using human σ2/TMEM97 receptor (Homo sapiens, UniProt Q5BJF2) data. > 7.00

Give pKi only, for CCn1nc(-c2ccon2)c(C(=O)N2CCC3(CCN(CCC(C)(C)C)CC3)CC2)c1Cl [Example 171] , using human σ2/TMEM97 receptor (Homo sapiens, UniProt Q5BJF2) data. > 7.00

Give pKi only, for Cc1cc(-c2nn(C)c(Cl)c2CC(=O)NC2CCN(CCC(C)(C)C)CC2)no1 [Example 220] , using human σ2/TMEM97 receptor (Homo sapiens, UniProt Q5BJF2) data. > 7.00

Give pKi only, for Cc1cc(-c2nn(C)c(Cl)c2C(=O)N2CCCC3(CCN(CCC(C)(C)C)CC3)C2)no1 [Example 92] , using human σ2/TMEM97 receptor (Homo sapiens, UniProt Q5BJF2) data. > 7.00

Give pKi only, for CCn1nc(-c2cc(C)on2)c(C(=O)N[C@H]2CC[C@H](NCCC(C)(C)C)CC2)c1Cl [Example 200] , using human σ2/TMEM97 receptor (Homo sapiens, UniProt Q5BJF2) data. > 7.00

Give pKi only, for CCn1nc(-c2ccon2)c(CC(=O)N2CCC3(CCN(CCC(C)(C)C)CC3)CC2)c1Cl [Example 209] , using human σ2/TMEM97 receptor (Homo sapiens, UniProt Q5BJF2) data. > 7.00

Give pKi only, for Cc1cc(-c2nn(C)c(Cl)c2CCN2CCCC[C@H](NCCC(C)C)C2)no1 [Example 119] , using human σ2/TMEM97 receptor (Homo sapiens, UniProt Q5BJF2) data. 6.30 to 7.00

Give pKi only, for Cc1cc(-c2nn(C)c(Cl)c2CN2CCC3(CC2)CCN(C(C)c2ccccc2)CC3)no1 (centres unmarked) [Example 65] , using human σ2/TMEM97 receptor (Homo sapiens, UniProt Q5BJF2) data. 6.30 to 7.00

Give pKi only, for Cn1ccc(-c2nn(C)c(Cl)c2C(=O)N2CCC3(CCN(CCC(C)(C)C)CC3)CC2)n1 [Example 181] , using human σ2/TMEM97 receptor (Homo sapiens, UniProt Q5BJF2) data. 6.30 to 7.00

Give pKi only, for Cc1cc(-c2nn(C)c(Cl)c2C(=O)NC2CCC3(CC2)CCN(CCC(C)(C)C)CC3)no1 [Example 107] , using human σ2/TMEM97 receptor (Homo sapiens, UniProt Q5BJF2) data. > 7.00

Give pKi only, for CCn1nc(-c2cc(C)on2)c(C(=O)NC2CCCCN(CCC(C)(C)C)C2)c1Cl (centres unmarked) [Example 206] , using human σ2/TMEM97 receptor (Homo sapiens, UniProt Q5BJF2) data. 6.00 to 6.30

Provenance of the data: patent US20240239781A1
